# measurement.protocol: shake flask on a mixture of 185; loss from the water phase only; LC-QTOF peak areas
# condition.context: room
assay.metric: log partition toluene / HPLC water, unbuffered, traces of methanol / DMSO (log10)
Could you give me the number in log10? Just the number is fine.

Consider the worked cases shown below.
CCCOC(=O)c1ccc(C(=O)OCCC)nc1	2.485
CO/C=C(/C(=O)OC)c1ccccc1Oc1cc(Oc2ccccc2C#N)ncn1	2.329
Cc1ccc([N+](=O)[O-])cc1S(=O)(=O)O	2.304
Nc1cc2c3c(c1)C(c1ccccc1)=N[C@@H](NC(=O)c1cccnc1)C(=O)N3CC2	0.4515
Cn1cnc([N+](=O)[O-])c1Sc1ncnc2nc[nH]c12	-1.048
CN(C1CCCCC1)S(=O)(=O)c1ccccc1N	-0.3194

Now for a further molecule.
Data point: CCCCOC(=O)C(C)Oc1ccc(Oc2ccc(C(F)(F)F)cn2)cc1 (centres unmarked) ; log partition toluene / HPLC water, unbuffered, traces of methanol / DMSO = 2.12

Values compiled from paper PMC10569036.
